# credit: paper PMC9697080

assay: Cytotoxicity assay (CCK8 Assay Kit); settings: human, HEK293T cells, CC50, HEK293T (293T) cells, CCK8, 24 h
property-name: CC50 at 24 h

# molecule, observed-measurement
rows = [
    ("CC(C)CN(C[C@@H](O)[C@H](Cc1ccccc1)NC(=O)c1cc(O)c(O)c(O)c1)S(=O)(=O)c1ccc(N)cc1 [16g]", "57.6 µM"),
    ("CC(C)CN(C[C@@H](O)[C@H](Cc1ccccc1)NC(=O)c1ccc(O)c(O)c1)S(=O)(=O)c1ccc(N)cc1 [16d]", "> 100 µM"),
    ("CSc1ccc(S(=O)(=O)N(CC(C)C)C[C@@H](O)[C@H](Cc2ccccc2)NC(=O)c2ccc(O)c(O)c2)cc1 [17d]", "> 100 µM"),
    ("COc1cc(C(=O)N[C@@H](Cc2ccccc2)[C@H](O)CN(CC(C)C)S(=O)(=O)c2ccc(SC)cc2)cc(OC)c1O [17h]", "> 100 µM"),
    ("CSc1ccc(S(=O)(=O)N(CC(C)C)C[C@@H](O)[C@H](Cc2ccccc2)NC(=O)c2ccc(O)cc2O)cc1 [17e]", "> 100 µM"),
    ("CSc1ccc(S(=O)(=O)N(CC(C)C)C[C@@H](O)[C@H](Cc2ccccc2)NC(=O)c2ccc(Cl)cc2O)cc1 [17b]", "> 100 µM"),
    ("CC(C)CN(C[C@@H](O)[C@H](Cc1ccccc1)NC(=O)c1ccccc1O)S(=O)(=O)c1ccc(N)cc1 [16a]", "> 100 µM"),
    ("CSc1ccc(S(=O)(=O)N(CC(C)C)C[C@@H](O)[C@H](Cc2ccccc2)NC(=O)c2cc(O)cc(O)c2)cc1 [17f]", "> 100 µM"),
    ("COc1ccc(S(=O)(=O)N(CC(C)C)C[C@@H](O)[C@H](Cc2ccccc2)NC(=O)c2ccccc2O)cc1 [15a]", "> 100 µM"),
    ("CC(C)CN(C[C@@H](O)[C@H](Cc1ccccc1)NC(=O)c1ccc(Cl)cc1O)S(=O)(=O)c1ccc(N)cc1 [16b]", "> 100 µM"),
    ("CC(C)CN(C[C@@H](O)[C@H](Cc1ccccc1)NC(=O)c1ccc(O)cc1O)S(=O)(=O)c1ccc(N)cc1 [16e]", "> 100 µM"),
    ("COc1ccc(S(=O)(=O)N(CC(C)C)C[C@@H](O)[C@H](Cc2ccccc2)NC(=O)c2ccc(O)c(O)c2)cc1 [15d]", "> 20 µM"),
    ("COc1ccc(S(=O)(=O)N(CC(C)C)C[C@@H](O)[C@H](Cc2ccccc2)NC(=O)c2ccc(O)cc2O)cc1 [15e]", "78.8 µM"),
    ("COc1ccc(S(=O)(=O)N(CC(C)C)C[C@@H](O)[C@H](Cc2ccccc2)NC(=O)c2cc(OC)c(OC)cc2O)cc1 [15i]", "> 100 µM"),
    ("CC(C)CN(C[C@@H](O)[C@H](Cc1ccccc1)NC(=O)c1cc(O)cc(O)c1)S(=O)(=O)c1ccc(N)cc1 [16f]", "> 100 µM"),
    ("CSc1ccc(S(=O)(=O)N(CC(C)C)C[C@@H](O)[C@H](Cc2ccccc2)NC(=O)c2ccccc2O)cc1 [17a]", "> 100 µM"),
    ("COc1cc(C(=O)N[C@@H](Cc2ccccc2)[C@H](O)CN(CC(C)C)S(=O)(=O)c2ccc(N)cc2)cc(OC)c1O [16h]", "> 100 µM"),
    ("COc1ccc(S(=O)(=O)N(CC(C)C)C[C@@H](O)[C@H](Cc2ccccc2)NC(=O)c2cc(OC)c(O)c(OC)c2)cc1 [15h]", "84.7 µM"),
    ("COc1cc(O)c(C(=O)N[C@@H](Cc2ccccc2)[C@H](O)CN(CC(C)C)S(=O)(=O)c2ccc(SC)cc2)cc1OC [17i]", "> 100 µM"),
    ("COc1ccc(C(=O)N[C@@H](Cc2ccccc2)[C@H](O)CN(CC(C)C)S(=O)(=O)c2ccc(N)cc2)c(O)c1 [16c]", "> 100 µM"),
    ("COc1ccc(C(=O)N[C@@H](Cc2ccccc2)[C@H](O)CN(CC(C)C)S(=O)(=O)c2ccc(SC)cc2)c(O)c1 [17c]", "> 100 µM"),
    ("COc1ccc(S(=O)(=O)N(CC(C)C)C[C@@H](O)[C@H](Cc2ccccc2)NC(=O)c2ccc(Cl)cc2O)cc1 [15b]", "> 20 µM"),
    ("COc1cc(O)c(C(=O)N[C@@H](Cc2ccccc2)[C@H](O)CN(CC(C)C)S(=O)(=O)c2ccc(N)cc2)cc1OC [16i]", "> 100 µM"),
    ("COc1ccc(S(=O)(=O)N(CC(C)C)C[C@@H](O)[C@H](Cc2ccccc2)NC(=O)c2ccc(OC)cc2O)cc1 [15c]", "> 100 µM"),
    ("COc1ccc(S(=O)(=O)N(CC(C)C)C[C@@H](O)[C@H](Cc2ccccc2)NC(=O)c2cc(O)c(O)c(O)c2)cc1 [15g]", "> 100 µM"),
]
